# subject of test: PfCSP full length (Plasmodium falciparum (isolate NF54), UniProt P19597)
# Sequence (P19597 20-375): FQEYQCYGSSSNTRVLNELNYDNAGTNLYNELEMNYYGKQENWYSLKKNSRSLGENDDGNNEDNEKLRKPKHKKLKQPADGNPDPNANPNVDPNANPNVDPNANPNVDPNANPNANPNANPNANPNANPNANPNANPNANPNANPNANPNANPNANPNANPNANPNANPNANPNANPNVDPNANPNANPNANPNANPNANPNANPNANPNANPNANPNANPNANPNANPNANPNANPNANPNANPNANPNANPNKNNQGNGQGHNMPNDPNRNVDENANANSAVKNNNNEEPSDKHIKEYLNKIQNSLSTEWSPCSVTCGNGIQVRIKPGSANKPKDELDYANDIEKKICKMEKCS
# experiment summary: ELISA AUC
Measured binding score of individual entries
experimental readout: binding score

>  <binder>
CL-440582 (antibody, V domains shown, peptides N-terminally acetylated and C-terminally amidated) VH: QVQLVESGGGVVQPGRSLRLSCAASGFTLNNYGIHWVRQAPGKGLEWLSLIWYDGSNKFYADSVKGRFTVSRDNSQNTVSLHMSSLSVDDTAVYYCARPGIGVPGDKYTMDVWGQGTTVTVSS VL: DIQMTQSPSTLSASVGDRVTITCRASQTISAWLAWYQQKLGKAPKILIYKASILESGVPSRFSGSGSGTEFTLTINSLQPDDFATYYCQQYNYDWTFGQGTKVEIN

>  <experimental readout>
binding score

>  <readout value>
2.6

$$$$
>  <binder>
Ky224 (antibody, V domains shown, peptides N-terminally acetylated and C-terminally amidated) VH: QVQLVESGGGVVQPGRSLRLSCAASGFTFSVYGMHWVRQAPGKGLEWVAVIWYDGSNKIYADSVKGRFTISRDNSKNTLYLQMDSLSAADTAVYYCAKIGSSSFDYWGQGTLVIVSS VL: DIVMTQTPLSSPVTLGQPASISCRSSQSLVHSNGITYLSWLQQRPGQPPRLLLYEISNRFSGVPDRFSGSGTGTDFTLKISRVEAEDVGVYYCMQTTQFPITFGQGTRLEIK

>  <experimental readout>
binding score

>  <readout value>
2.2

$$$$
>  <binder>
CL-509177 (antibody, V domains shown, peptides N-terminally acetylated and C-terminally amidated) VH: QVQLVESGGGVVQPGRSLRLSCAASGFSFSSYGMHWVRQTPGKGLEWVAIIWYDGSNKFYADSVKGRFIISRDNSKNTLYLQMNSLRAEDTAVYYCARDGGYSTSAGDFDYWGQGTLVTVSS VL: EIVLTQSPGTLSLSPGERATLSCRASQSVSSSYLAWYQQKPGQAPRLLIYGASSRATGIPDRFSGRGSGTDFTLTISRLEPEDFAVYYCQQYVSSFTFGPGTKVDIN

>  <experimental readout>
binding score

>  <readout value>
1.17

$$$$
>  <binder>
CL-510082 (antibody, V domains shown, peptides N-terminally acetylated and C-terminally amidated) VH: QVQLVESGGGVVQPGKSLRLSCVASGFTFSNNGMHWIRQAPGKGLEWVAIIWYDGSNKFYADSVKGRFTISRDNSHNTLYLQMNSLRAEDTAVYYCARDRMFGSGTWNYFDPWGQGTLVTVSS VL: EIVLTQSPATLSLSPGERATLSCRASQSVSTYLAWYQQKPGQAPRLLIYDASNRATGIPARFSGSGSGTDFTLTISSLEPEDFAVYYCQQRSYWWTFGQGTKVEIK

>  <experimental readout>
binding score

>  <readout value>
2.38

$$$$
>  <binder>
CL-510373 (antibody, V domains shown, peptides N-terminally acetylated and C-terminally amidated) VH: QVQLVESGGGVVQPGRSLKLSCAASGFTFSSYGMHWVRQAPGRGLEWVSIIWYDGSNKFYSDSVQGRFTISRDDSKNTLYLQMNSLRAEDTAMYYCAMVANYTISSGAFDIWGHGTMVTVSS VL: DIQMTQSPSTLSASVGDRVTITCRASQSISNWLAWYQQKSGKAPKLLIYKASSLESGVPSRFSGSGSGTEFTLTISSLQPDDFATYFCQQYKTYWTFGQGTKVEIK

>  <experimental readout>
binding score

>  <readout value>
2.37

$$$$
>  <binder>
CL-512564 (antibody, V domains shown, peptides N-terminally acetylated and C-terminally amidated) VH: QVQLVESGGGVVQPGRSLRLSCAASGFTFSNSGMHWVRQAPGKGLEWVAIIWYDGSHKFYADSVKGRFTISRDNSKNTLYLQMNSLRIEDTAMYYCVRSYNWNYPVRGDYKYGMDVWGQGTTVTVSS VL: DIQMTQSPSTLSASVGDRVTITCRASQSISSWLAWFQQKPGKAPNLLIYMASSLQSGVPSRFSGSGSGTEFTLTISSLQPDDFATYYCQQFNTYWTFGQGTKVEIK

>  <experimental readout>
binding score

>  <readout value>
2.14

$$$$
>  <binder>
CL-512508 (antibody, V domains shown, peptides N-terminally acetylated and C-terminally amidated) VH: QVQLVESGGGVVQPGTSLRLSCGASGFTFSSYGMHWVRQAPGKGLEWVAIIWYDGNNKYYADSVKGRFTISRDNSKNTLYLQMNSLRAEDTAVYYCAKVGQFSTSSWGAFDIWGQGTMVTVSS VL: EIVLTQSPGTLPLSPGERATLSCRASQSVSSSQLAWYQQKPGQAPRLLIYGASSRATAIPDRFSGSGSGTDFTLTISRLEPEDFAVYYCQQYSRLWTFGQGTKVEIK

>  <experimental readout>
binding score

>  <readout value>
2.01

$$$$
>  <binder>
CL-511073 (antibody, V domains shown, peptides N-terminally acetylated and C-terminally amidated) VH: QVQLVESGGGVVQPGRSLRLSCAASGFSFSSHGMHWVRQAPGKGLEWVSIIWYDGSNKFYADSVKGRFTISRDNSKNTLYLQMNSLRAEDTAVYYCARDGYDVLTGHYNWFDPWGQGTLVTVSS VL: EIVMTQSPATLSVSPGERATLSCRASQSVSSKLAWYQQKPGQAPRLLIYGASTRATGIPARFSGSGSGTDFTLTISSLQSEDFAVYYCQQYNNWWTFGHGTKVEIK

>  <experimental readout>
binding score

>  <readout value>
2.15

$$$$
>  <binder>
CL-444592 (antibody, V domains shown, peptides N-terminally acetylated and C-terminally amidated) VH: QVQLVESGGGVVQPGRSLRLSCAASGFTFSSYGMHWVRQAPGKGLEWVAVIWYDGSNKYYADSVKGRFTISRDNSKNTLYLQMNSLRAEDTAVYYCARDGNWNYNYYYGMDVWGQGTTVTVSS VL: DIQLTQSPSFLSASVGDRVTITCWASQGISSYLAWYQQKPGKAPKLLIYAASTLQSGVPSRFSGSGSGTEFTLTISSLQPEDFATYYCQQLNSYPPTFGQGTRLEIK

>  <experimental readout>
binding score

>  <readout value>
1.5

$$$$
>  <binder>
CL-440422 (antibody, V domains shown, peptides N-terminally acetylated and C-terminally amidated) VH: QVQLVESGGGVVQPGRSLRLSCAASGFTFSNFGMHWVRQTPDRGLEWVAIIWFDGSNTFYTDSVKGRFTISRDNYMNTLYLQMNSLRAEDTAVYYCARSFYSDSAGSLFDYWGQGTLVTVSS VL: DIQMTQSPSTLSASVGDRVTITCRASQNINNWVAWYQQKPGKAPKLLIYKASDLETGVPSRFSGSGSGTEFTLTISGLQPDDFATFYCLQNNHYWTFGQGTKVEIK

>  <experimental readout>
binding score

>  <readout value>
2.5

$$$$
